Data credit: patent US20130197030A1

- ASSAY_TARGET: Human Recombinant (E. coli) PPARgamma (Homo sapiens, UniProt P37231)
- Sequence (P37231 whole entry): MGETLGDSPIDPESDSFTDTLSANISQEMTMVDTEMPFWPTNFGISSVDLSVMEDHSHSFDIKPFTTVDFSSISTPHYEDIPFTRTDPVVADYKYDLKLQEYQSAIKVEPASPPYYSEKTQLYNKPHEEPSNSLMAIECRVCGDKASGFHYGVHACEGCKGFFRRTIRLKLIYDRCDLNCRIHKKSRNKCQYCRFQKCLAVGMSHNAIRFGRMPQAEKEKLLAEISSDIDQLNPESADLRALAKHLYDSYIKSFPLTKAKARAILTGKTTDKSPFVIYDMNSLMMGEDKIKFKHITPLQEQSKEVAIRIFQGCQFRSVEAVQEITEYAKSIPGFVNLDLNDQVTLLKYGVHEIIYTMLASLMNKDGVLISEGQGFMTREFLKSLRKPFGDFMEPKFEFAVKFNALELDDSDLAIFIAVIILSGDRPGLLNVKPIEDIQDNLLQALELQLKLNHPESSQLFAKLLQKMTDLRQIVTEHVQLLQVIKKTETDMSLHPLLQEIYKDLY
- PROTOCOL: PPAR gamma binding assay
- EXPERIMENTAL_CONTEXT: [3H]-rosiglitazone 10 nM; read-out: PPARγ binding IC50
MEASUREMENT_LABEL: pIC50
When answering, recall that pIC50 equals minus log10 of the concentration in mol/L, and write that number alone.

Prompt line: State the recorded pIC50 for this entry: O=C(O)CC/C=C\CC1COC(c2coc3ccc(Cl)cc3c2=O)OC1c1ccccc1O (racemic) [Compound 3]
Response line: 5.13

---

Sequence of the target: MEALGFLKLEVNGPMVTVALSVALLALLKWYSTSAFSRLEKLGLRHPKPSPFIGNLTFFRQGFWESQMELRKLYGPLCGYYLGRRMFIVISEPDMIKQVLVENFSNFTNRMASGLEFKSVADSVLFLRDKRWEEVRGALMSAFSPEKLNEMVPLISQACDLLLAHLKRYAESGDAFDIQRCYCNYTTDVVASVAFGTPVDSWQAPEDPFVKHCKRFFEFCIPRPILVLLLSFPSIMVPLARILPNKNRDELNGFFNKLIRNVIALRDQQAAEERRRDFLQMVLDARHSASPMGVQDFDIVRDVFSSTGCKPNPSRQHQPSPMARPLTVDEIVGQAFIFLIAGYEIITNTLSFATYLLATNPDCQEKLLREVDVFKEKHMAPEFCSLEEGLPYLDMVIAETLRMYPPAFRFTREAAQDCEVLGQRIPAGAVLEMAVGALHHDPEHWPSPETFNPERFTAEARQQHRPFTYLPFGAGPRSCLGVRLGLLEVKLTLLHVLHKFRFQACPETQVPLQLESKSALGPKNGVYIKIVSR
MEASUREMENT_LABEL: IC50 (µM)
Please reply with the bare figure in µM and do not write the unit itself.

Prompt line: State the recorded IC50 for this entry: COc1ccccc1[C@@H]1O[C@H](c2ccccc2Cl)OC[C@@H]1C/C=C\CCC(=O)O [Compound F, reference compound]
Response line: 20.4

---

- ASSAY_TARGET: Thromboxane receptor (TP) (Homo sapiens)
- Sequence (P21731 1-343): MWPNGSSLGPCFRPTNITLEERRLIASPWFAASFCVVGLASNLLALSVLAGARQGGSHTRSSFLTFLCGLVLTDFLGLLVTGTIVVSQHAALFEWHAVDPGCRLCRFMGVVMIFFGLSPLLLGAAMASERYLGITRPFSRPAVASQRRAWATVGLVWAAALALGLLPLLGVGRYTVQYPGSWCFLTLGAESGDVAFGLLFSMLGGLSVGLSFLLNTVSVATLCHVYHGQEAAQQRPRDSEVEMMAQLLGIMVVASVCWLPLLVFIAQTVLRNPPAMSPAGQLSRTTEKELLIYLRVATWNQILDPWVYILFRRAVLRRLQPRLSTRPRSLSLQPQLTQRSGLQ
- PROTOCOL: TP receptor radioligand binding
- EXPERIMENTAL_CONTEXT: Human recombinant HEK-293 cells, 5 nM [3H] SQ-29548
MEASUREMENT_LABEL: Ki (nM)
Please reply with the bare figure in nM and do not write the unit itself.

Below, each entry is followed by its recorded Ki result.
Prompt line: Recall the recorded Ki for O=C(O)CC/C=C\C[C@H]1CO[C@@H](c2coc3ccc(Cl)cc3c2=O)O[C@H]1c1ccccc1O (single isomer, unassigned) [Compound 3-2] with Thromboxane receptor (TP) (Homo sapiens) and state it.
Response line: 1100

Prompt line: Recall the recorded Ki for COc1ccccc1[C@@H]1O[C@H](c2ccccc2Cl)OC[C@@H]1C/C=C\CCC(=O)O [Compound F, reference compound] with Thromboxane receptor (TP) (Homo sapiens) and state it.
Response line: 15.3

Prompt line: Recall the recorded Ki for O=C(O)CC/C=C\CC1COC(c2coc3ccc(Cl)cc3c2=O)OC1c1ccccc1O (racemic) [Compound 3] with Thromboxane receptor (TP) (Homo sapiens) and state it.
Response line: 9.9

Switching to the query record.
Prompt line: Recall the recorded Ki for O=C(O)CC/C=C\C[C@@H]1CO[C@H](c2coc3ccc(Cl)cc3c2=O)O[C@@H]1c1ccccc1O (single isomer, unassigned) [Compound 3-1] with Thromboxane receptor (TP) (Homo sapiens) and state it.
Response line: 58
